molecular target: Peptidylglycine alpha-amidating monooxygenase (Rattus norvegicus) (UniProt P14925); assay: Ratio of Vm(app) to Km(app) for rat recombinant peptidylglycine alpha-amidating monooxygenase
Listing of recorded Ratio by entry.
Give the number; ×10³ /M/s is assumed, so skip it.

| cpd_smiles | value_observed |
| --- | --- |
| O=C(O)CNC(=O)c1ccc(Cl)cc1 | 6.6 |
| CC(C)(C)OC(=O)NCC(=O)O | 1.7 |
| O=C(O)CNC(=O)c1ccc(Br)cc1 | 4.9 |

Read the next record carefully.
Problem: Send back Peptidylglycine alpha-amidating monooxygenase (Rattus norvegicus) (UniProt P14925) Ratio of "CC(C)SCC(=O)NCC(=O)O" only.
Result: 8.2

###

Examples of compounds with documented Activity follow.
Target: Peptidylglycine alpha-amidating monooxygenase (Rattus norvegicus) (UniProt P14925)
Sequence (whole entry): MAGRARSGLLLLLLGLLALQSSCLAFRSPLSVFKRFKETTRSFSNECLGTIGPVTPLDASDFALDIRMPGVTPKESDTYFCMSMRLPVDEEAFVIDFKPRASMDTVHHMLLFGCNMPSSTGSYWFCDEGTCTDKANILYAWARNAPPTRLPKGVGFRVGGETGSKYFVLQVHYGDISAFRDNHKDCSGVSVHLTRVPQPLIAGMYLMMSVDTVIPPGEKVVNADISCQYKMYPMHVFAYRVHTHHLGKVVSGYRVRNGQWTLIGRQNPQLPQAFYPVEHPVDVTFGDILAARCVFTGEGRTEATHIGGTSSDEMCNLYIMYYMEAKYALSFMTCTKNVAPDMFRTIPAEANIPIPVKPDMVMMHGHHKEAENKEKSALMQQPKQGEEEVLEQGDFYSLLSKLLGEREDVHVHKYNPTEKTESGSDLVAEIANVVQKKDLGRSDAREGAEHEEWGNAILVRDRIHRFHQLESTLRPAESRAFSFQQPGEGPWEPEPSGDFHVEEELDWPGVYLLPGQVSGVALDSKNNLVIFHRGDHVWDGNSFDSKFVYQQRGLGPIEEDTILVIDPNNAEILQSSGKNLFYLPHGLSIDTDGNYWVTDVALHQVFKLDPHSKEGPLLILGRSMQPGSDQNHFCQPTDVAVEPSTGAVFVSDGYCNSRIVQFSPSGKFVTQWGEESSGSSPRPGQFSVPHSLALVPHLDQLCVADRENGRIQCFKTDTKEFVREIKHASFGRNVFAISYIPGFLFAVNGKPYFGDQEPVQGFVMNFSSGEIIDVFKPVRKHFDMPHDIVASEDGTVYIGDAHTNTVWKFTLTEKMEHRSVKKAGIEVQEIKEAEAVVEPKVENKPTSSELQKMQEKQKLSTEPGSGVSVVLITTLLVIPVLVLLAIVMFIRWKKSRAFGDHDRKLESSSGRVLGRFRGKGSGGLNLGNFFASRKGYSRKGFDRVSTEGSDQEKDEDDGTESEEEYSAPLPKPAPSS
Experiment: Ratio of Vm(app) to Km(app) for rat recombinant peptidylglycine alpha-amidating monooxygenase relative to hippuric acid

Problem: Please indicate Activity recorded for "CCCc1ccc(C(=O)NCC(=O)O)cc1"
Result: 0.7

Problem: Fill in Activity for record "CCc1ccc(C(=O)NCC(=O)O)cc1"
Result: 0.5

Problem: Fill in reported Activity for this entry: "CC(C)SCC(=O)NCC(=O)O"
Result: 1.3

###

# Ratio per record follows
target: Peptidylglycine alpha-amidating monooxygenase (Rattus norvegicus); assay: Ratio of Vm(app) to Km(app) for rat recombinant peptidylglycine alpha-amidating monooxygenase
Where a SMILES comes first, the peptide text is derived from it. The star is where a group is joined. Bz = O=C(c1ccccc1)*

Consider the following illustrative entries.
| compound | value_observed |
| --- | --- |
| O=C(O)CNC(=O)c1c(F)cccc1F | 2.3 ×10² /M/s |
| O=C(O)CNC(=O)c1ccco1 | 2.8 ×10³ /M/s |
| O=C(O)CNC(=O)CNC(=O)c1ccccc1 (Bz-Gly-Gly-OH) | 1.6 ×10⁵ /M/s |
| O=C(O)CNC(=O)CCc1ccccc1 | 1.1 ×10⁴ /M/s |
| CCCc1ccc(C(=O)NCC(=O)O)cc1 | 4.2 ×10³ /M/s |

Continue with the next compound.
Problem: // fetch Ratio for "O=C(O)CNC(=O)c1cccs1" ; system: Peptidylglycine alpha-amidating monooxygenase (Rattus norvegicus)
Result: 6 ×10³ /M/s
